Data provenance is ChEMBL document CHEMBL4382248.

Some molecules, each annotated with its measured IC50.
- Target or system: UniProtKB P40145
- Assay method text: Inhibition of human AC8 expressed in HEK293 cells assessed as decrease in A23187-stimulated cAMP accumulation preincubated for 30 mins followed by A23187 stimulation and measured after 1 hr by fluorescence assay
- Assay type: cell-based

- Mol smiles: "O=C(Nc1nnc(-c2ccc3c(c2)CCCC3)o1)c1ccc(Cl)cc1"
  IC50 / µM: 3.6
- Mol smiles: "COc1ccc(-c2nnc(NC(=O)c3cc(-c4cccs4)nc4ccccc34)o2)cc1"
  IC50 / µM: 5.6
- Mol smiles: "COc1cc(C(=O)Nc2nnc(-c3ccc(F)cc3)o2)cc(C(F)(F)F)c1"
  IC50 / µM: 29
- Mol smiles: "CCOc1cccc2cc(-c3nnc(NC(=O)c4ccccc4SC)o3)oc12"
  IC50 / µM: 11

----------
- Target or system: Adenylate cyclase type 8 (Homo sapiens, UniProt P40145)
- Sequence (P40145 whole entry): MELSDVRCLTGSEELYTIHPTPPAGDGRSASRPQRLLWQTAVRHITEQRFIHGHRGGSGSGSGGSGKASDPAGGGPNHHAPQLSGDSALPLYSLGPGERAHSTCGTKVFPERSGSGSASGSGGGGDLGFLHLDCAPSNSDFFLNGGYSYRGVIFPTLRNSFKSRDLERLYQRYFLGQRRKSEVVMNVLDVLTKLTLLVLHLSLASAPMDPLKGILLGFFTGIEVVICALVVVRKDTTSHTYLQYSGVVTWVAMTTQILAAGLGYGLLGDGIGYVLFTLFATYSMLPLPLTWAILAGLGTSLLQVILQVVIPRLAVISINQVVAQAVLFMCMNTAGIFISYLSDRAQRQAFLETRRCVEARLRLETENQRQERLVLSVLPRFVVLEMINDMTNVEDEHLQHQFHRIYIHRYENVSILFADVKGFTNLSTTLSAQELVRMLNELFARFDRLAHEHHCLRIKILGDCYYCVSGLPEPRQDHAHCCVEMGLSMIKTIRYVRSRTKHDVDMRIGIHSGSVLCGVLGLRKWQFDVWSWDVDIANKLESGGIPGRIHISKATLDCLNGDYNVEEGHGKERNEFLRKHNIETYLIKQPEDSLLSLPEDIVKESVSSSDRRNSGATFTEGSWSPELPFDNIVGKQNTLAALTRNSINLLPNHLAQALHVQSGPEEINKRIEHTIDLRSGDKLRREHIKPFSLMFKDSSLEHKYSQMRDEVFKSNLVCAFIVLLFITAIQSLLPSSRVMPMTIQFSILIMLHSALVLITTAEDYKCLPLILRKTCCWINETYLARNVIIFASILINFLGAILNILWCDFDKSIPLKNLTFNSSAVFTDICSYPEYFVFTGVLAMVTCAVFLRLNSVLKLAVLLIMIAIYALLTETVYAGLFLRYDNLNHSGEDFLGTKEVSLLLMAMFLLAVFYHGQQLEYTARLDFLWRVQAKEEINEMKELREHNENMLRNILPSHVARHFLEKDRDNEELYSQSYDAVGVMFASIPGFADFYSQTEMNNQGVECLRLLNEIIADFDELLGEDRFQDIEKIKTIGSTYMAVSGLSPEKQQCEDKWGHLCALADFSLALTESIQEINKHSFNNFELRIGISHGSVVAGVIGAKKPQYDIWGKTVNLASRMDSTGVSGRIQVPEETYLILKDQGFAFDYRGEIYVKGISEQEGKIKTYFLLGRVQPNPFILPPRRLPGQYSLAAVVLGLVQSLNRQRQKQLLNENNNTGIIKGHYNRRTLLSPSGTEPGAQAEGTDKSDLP
- Assay method text: Inhibition of human AC8 expressed in HEK293 cells assessed as decrease in A23187-stimulated cAMP accumulation at 30 uM preincubated for 30 mins followed by A23187 stimulation and measured after 1 hr by fluorescence assay relative to control
- Assay type: cell-based

- Mol smiles: "COc1ccc(C(=O)Nc2nnc(-c3ccc4c(c3)CCCC4)o2)cc1"
  inhibition: "34%"
- Mol smiles: "O=C(Nc1nnc(-c2ccc(F)cc2)o1)c1ccc(F)cc1"
  inhibition: "14%"
- Mol smiles: "O=C(Nc1nnc(-c2ccco2)o1)c1ccccc1"
  inhibition: "28%"
- Mol smiles: "O=C(Nc1nnc(C2CCCCC2)o1)c1ccc(Cl)cc1"
  inhibition: "10%"
- Mol smiles: "O=C(Nc1nnc(-c2cccs2)o1)c1ccccc1"
  inhibition: "18%"
- Mol smiles: "CCc1ccc(C(=O)Nc2nnc(C3CCCCC3)o2)cc1"
  inhibition: "44%"
- Mol smiles: "COc1ccc(C(=O)Nc2nnc(-c3ccc(F)cc3)o2)cc1"
  inhibition: "20%"
- Mol smiles: "CC(C)Oc1ccc(C(=O)Nc2nnc(-c3cccs3)o2)cc1"
  inhibition: "24 to 35%"
- Mol smiles: "CC(C)Oc1ccc(C(=O)Nc2nnc(C3CCCCC3)o2)cc1"
  inhibition: "35%"
- Mol smiles: "O=C(Nc1nnc(C2CCCCC2)o1)c1ccc(F)cc1"
  inhibition: "7%"
- Mol smiles: "O=C(Nc1nnc(-c2ccc(F)cc2)o1)c1ccc(Br)cc1"
  inhibition: "33%"
- Mol smiles: "COc1cccc(C(=O)Nc2nnc(-c3ccc(F)cc3)o2)c1"
  inhibition: "23%"

----------
Recorded viability at 1 h, 30 µM for the following compounds
- Assay method text: Cytotoxicity against HEK293 cells expressing human AC1 at 30 uM preincubated for 30 mins followed by A23187 stimulation and measured after 1 hr by CellTiter-Glo luminescent cell viability assay relative to control
- Assay type: cell-based
- Condition set: HEK293 cells expressing human AC1, read-out: Activity
Experimental readout: viability at 1 h, 30 µM (%)

- Mol smiles: "Cc1ccc(C(=O)Nc2nnc(C3CCCCC3)o2)cc1"
  Observed value: 111
- Mol smiles: "O=C(Nc1nnc(-c2ccc(F)cc2)o1)c1ccc(F)cc1"
  Observed value: 100
- Mol smiles: "O=C(Nc1nnc(C2CCCCC2)o1)c1ccccc1"
  Observed value: 87
- Mol smiles: "CC(C)Oc1ccc(C(=O)Nc2nnc(-c3ccccc3)o2)cc1"
  Observed value: 101
- Mol smiles: "CCc1ccc(C(=O)Nc2nnc(-c3ccc4c(c3)CCCC4)o2)cc1"
  Observed value: 114
- Mol smiles: "CCc1ccc(C(=O)Nc2nnc(C3CCCCC3)o2)cc1"
  Observed value: 119
